Target: Disintegrin and metalloproteinase domain-containing protein 17 (Homo sapiens, UniProt P78536)
Sequence (P78536 whole entry, the tested form may be a part): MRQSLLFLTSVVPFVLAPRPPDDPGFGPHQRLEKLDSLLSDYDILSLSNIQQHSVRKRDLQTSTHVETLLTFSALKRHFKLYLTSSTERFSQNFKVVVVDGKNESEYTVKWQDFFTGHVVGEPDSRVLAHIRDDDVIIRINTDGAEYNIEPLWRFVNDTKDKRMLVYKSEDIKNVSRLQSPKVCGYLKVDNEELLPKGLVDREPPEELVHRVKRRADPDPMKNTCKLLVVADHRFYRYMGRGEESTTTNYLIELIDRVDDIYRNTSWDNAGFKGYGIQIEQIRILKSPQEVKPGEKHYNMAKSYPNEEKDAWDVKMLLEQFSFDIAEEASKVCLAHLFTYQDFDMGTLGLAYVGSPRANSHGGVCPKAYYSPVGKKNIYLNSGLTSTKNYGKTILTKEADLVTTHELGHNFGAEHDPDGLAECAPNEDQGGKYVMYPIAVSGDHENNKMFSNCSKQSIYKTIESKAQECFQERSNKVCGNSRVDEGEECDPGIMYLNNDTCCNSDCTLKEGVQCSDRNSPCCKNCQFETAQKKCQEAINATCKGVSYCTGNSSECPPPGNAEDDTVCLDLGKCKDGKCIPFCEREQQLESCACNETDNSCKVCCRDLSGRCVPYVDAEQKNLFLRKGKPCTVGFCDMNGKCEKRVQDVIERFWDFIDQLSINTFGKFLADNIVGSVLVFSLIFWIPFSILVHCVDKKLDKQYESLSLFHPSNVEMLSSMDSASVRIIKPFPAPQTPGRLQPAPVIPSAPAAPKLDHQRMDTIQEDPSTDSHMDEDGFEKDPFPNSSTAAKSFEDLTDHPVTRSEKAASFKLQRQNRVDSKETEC
Assay: Inhibition of TNF-alpha converting enzyme (TACE)
value.kind: pKi
To interpret pKi, take it as minus log10 of a concentration measured in moles per litre.

// query Which measured pKi value corresponds to CNC(=O)[C@@H](NC(=O)[C@@H](CC(=O)NO)CC(C)C)C(C)(C)C ?
// result 7.06

====

Assay: Half life by intravenous administration of 3.4 mg/kg in rat
Assay type: ADME, organism-based
Set-up: dose 3.4 mg/kg, route intravenous
Settings: in vivo
value.kind: half-life (h)
Hi! Could you send only the number? It should be in h, unit omitted.

// query Which measured half-life value corresponds to CC(C)C[C@@H](C(=O)N[C@H](C(=O)Nc1nccs1)C(C)(C)C)[C@H](C)N(O)C=O ?
// result 3.4

====

Recorded Ki, one value per entry.
Molecular target: Stromelysin-1 (Homo sapiens, UniProt P08254)
Sequence (P08254 whole entry): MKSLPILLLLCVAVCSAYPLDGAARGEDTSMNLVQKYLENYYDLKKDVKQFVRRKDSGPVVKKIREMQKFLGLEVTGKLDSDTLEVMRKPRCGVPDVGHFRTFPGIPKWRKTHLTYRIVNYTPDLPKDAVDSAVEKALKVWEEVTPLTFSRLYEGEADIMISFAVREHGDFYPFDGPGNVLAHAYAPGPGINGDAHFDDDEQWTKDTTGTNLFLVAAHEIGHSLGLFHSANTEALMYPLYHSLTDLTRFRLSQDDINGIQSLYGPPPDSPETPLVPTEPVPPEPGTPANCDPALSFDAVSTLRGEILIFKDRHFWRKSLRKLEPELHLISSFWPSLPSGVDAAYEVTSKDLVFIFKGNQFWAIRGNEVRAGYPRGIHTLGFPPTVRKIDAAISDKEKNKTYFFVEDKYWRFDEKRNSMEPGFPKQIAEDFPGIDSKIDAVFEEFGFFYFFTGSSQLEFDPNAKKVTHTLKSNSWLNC
Assay: Inhibition of matrix metalloprotease-3 (MMP3)
Hi! Could you send only the number? It should be in nM, unit omitted.

In the examples that follow, each entry is paired with its recorded Ki.
compound	Ki (nM)
CC[C@@H]([C@@H](CC(C)C)C(=O)N[C@H](C(=O)Nc1nccs1)C(C)(C)C)N(O)C=O	135
CC[C@H](C)[C@H](NC(=O)[C@H](CC(C)C)[C@H](CC)N(O)C=O)C(=O)Nc1nccs1	45
CC[C@@H]([C@@H](CC(C)C)C(=O)N[C@H](C(=O)Nc1ccccn1)C(C)(C)C)N(O)C=O	153

// query Which measured Ki value corresponds to CCC(C)[C@H](NC(=O)[C@H](CC(C)C)[C@H](CC)N(O)C=O)C(=O)Nc1ccccn1 (some centres undefined) ?
// result 38

====

Experiment: Area under curve was determined for the compound by intravenous administration of 3.4 mg/kg in rat
Assay type: ADME, organism-based
Parameters: dose 3.4 mg/kg, route intravenous
Conditions: in vivo
value.kind: AUC
Please make sure the unit comes right after the number.

// query Which measured AUC value corresponds to CC(C)C[C@@H](C(=O)N[C@H](C(=O)Nc1nccs1)C(C)(C)C)[C@H](C)N(O)C=O ?
// result 957 ng·h/mL

====

Assay: Maximum concentration by intravenous administration of 3.4 mg/kg in rat
Format: ADME, organism-based
Parameters: dose 3.4 mg/kg, route intravenous
Conditions: in vivo
value.kind: Cmax (ng/mL)
Hi! Could you send only the number? It should be in ng/mL, unit omitted.

// query Which measured Cmax value corresponds to CC(C)C[C@@H](C(=O)N[C@H](C(=O)Nc1nccs1)C(C)(C)C)[C@H](C)N(O)C=O ?
// result 2330

====

Assay: Bioavailability by intravenous administration of 1.2 mg/kg in dog
Assay type: ADME, organism-based, Canis lupus familiaris
Conditions: in vivo
value.kind: bioavailability (%)
Hi! Could you send only the number? It should be in %, unit omitted.

// query Which measured bioavailability value corresponds to CC(C)C[C@@H](C(=O)N[C@H](C(=O)Nc1nccs1)C(C)(C)C)[C@H](C)N(O)C=O ?
// result 44

====

Molecular target: Matrix metalloproteinase-9 (Homo sapiens, UniProt P14780)
Sequence (P14780 whole entry): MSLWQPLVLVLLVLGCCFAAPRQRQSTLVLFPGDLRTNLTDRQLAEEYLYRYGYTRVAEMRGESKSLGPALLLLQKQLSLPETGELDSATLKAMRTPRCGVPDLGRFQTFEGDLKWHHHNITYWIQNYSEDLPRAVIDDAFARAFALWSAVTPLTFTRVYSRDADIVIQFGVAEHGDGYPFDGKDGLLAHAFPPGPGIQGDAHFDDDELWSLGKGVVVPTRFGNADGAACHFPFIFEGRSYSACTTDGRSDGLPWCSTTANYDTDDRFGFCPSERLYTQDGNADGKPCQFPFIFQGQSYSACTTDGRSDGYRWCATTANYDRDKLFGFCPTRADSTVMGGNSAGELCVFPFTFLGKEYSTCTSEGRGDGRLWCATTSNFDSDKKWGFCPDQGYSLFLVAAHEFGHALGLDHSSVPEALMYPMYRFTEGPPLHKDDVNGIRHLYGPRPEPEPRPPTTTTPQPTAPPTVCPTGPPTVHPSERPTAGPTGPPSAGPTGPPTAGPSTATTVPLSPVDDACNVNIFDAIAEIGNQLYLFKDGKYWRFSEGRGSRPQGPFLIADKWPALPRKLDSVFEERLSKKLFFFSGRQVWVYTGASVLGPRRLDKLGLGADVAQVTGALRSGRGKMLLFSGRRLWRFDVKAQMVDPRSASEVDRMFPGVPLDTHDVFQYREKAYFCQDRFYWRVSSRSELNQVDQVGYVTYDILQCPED
Response field label takes met when Ki is strictly below 0.03 µM and not met in all other cases.

Record excerpt, results attached:
compound	class
CC(C)C[C@H](NC(=O)[C@H](CC(C)C)[C@H](C)N(O)C=O)C(=O)Nc1nccs1	met
CC(C)C[C@@H](C(=O)N[C@H](C(N)=O)C(C)(C)C)[C@H](C)N(O)C=O	not met
CCC(C)[C@H](NC(=O)[C@H](CC(C)C)[C@H](CC)N(O)C=O)C(=O)Nc1ccccn1 (some centres not stated)	not met
CC(C)C[C@@H](C(=O)N[C@H](C(=O)Nc1nccs1)C(C)(C)C)[C@H](C)N(O)C=O	not met

// query Does the reported Ki of CC(C)C[C@@H](C(=O)N[C@@H](CC(C)(C)C)C(=O)Nc1nccs1)[C@H](C)N(O)C=O stay below 0.03 µM?
// result not met

// query Now try CNC(=O)[C@@H](NC(=O)[C@@H](CC(=O)NO)CC(C)C)C(C)(C)C .
// result met

// query Now try CC[C@H](C)C(NC(=O)[C@H](CC(C)C)[C@H](C)N(O)C=O)C(=O)Nc1nccs1 (single isomer, unassigned) .
// result met

====

Assay: Maximum concentration by intravenous administration of 1.2 mg/kg in dog
Type: ADME, organism-based, Canis lupus familiaris
Parameters: dose 1.2 mg/kg, route intravenous
Conditions: in vivo
value.kind: Cmax (ng/mL)
Hi! Could you send only the number? It should be in ng/mL, unit omitted.

// query Which measured Cmax value corresponds to CC(C)C[C@@H](C(=O)N[C@H](C(=O)Nc1nccs1)C(C)(C)C)[C@H](C)N(O)C=O ?
// result 4530

====

Recorded Ki, one value per entry.
Target: Stromelysin-1 (Homo sapiens)
Experiment: Inhibition of Matrix metalloprotease-3
Hi! Could you send only the number? It should be in nM, unit omitted.

molecule	numeric.readout
CC(C)C[C@H](NC(=O)[C@H](CC(C)C)[C@H](C)N(O)C=O)C(=O)Nc1nccs1	80
CC(C)C[C@@H](C(=O)N[C@H](C(N)=O)C(C)(C)C)[C@H](C)N(O)C=O	406
CNC(=O)[C@@H](NC(=O)[C@@H](CC(=O)NO)CC(C)C)C(C)(C)C [RO-319790]	310

// next entry
// query Which measured Ki value corresponds to CC(C)C[C@@H](C(=O)N[C@@H](CC(C)(C)C)C(=O)Nc1nccs1)[C@H](C)N(O)C=O ?
// result 354
